In this section, each of the compounds is paired with its reported pIC50.
Target: human p38α (Homo sapiens)
Sequence (Q16539 whole entry): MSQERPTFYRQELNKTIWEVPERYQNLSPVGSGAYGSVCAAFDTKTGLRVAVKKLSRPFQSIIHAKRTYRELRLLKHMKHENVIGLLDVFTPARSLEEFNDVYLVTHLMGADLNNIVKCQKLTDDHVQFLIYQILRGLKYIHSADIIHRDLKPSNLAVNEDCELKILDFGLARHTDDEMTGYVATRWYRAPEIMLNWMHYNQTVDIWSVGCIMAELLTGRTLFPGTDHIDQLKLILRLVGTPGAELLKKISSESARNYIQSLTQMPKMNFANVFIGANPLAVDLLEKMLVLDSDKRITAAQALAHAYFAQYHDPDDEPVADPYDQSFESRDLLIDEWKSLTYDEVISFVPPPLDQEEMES
Experiment: Purified and activated recombinant human p38α HTRF kinase assay
Conditions: 1 nM p38α, 50 μM ATP, 100 nM GST-ATF2-Avitag, 1 hour at RT; read-out: p38a IC50
pIC50: −log10 of the molar value.
reported metric: pIC50

1. CCn1c(=O)c(-c2cc(C(=O)NC3CC3)cc(F)c2C)nc2cnn(-c3c(F)cccc3F)c21 8.64
2. Cc1ccc(C(=O)Nc2ccon2)cc1-c1nc2cnn(-c3c(F)cccc3F)c2n(C)c1=O 8.00
3. CCn1c(=O)c(-c2cc(C(N)=O)cc(F)c2C)nc2cnn(-c3c(F)cccc3F)c21 7.66
4. Cc1c(F)cc(C(=O)Nc2ccon2)cc1-c1nc2cnn(-c3c(F)cccc3F)c2n(C)c1=O 8.92
5. Cc1ccc(C(N)=O)cc1-c1nc2cnn(-c3c(F)cccc3F)c2n(C)c1=O 8.07

====

Tested on: TNF-α induced IL-8 in 50% human whole blood
Assay: Inhibition of TNF-α induced IL-8 in 50% human whole blood
Type: cell-based
Conditions: 50% human whole blood activated with 1 nM TNF-α, secreted IL-8, 16-18 hours; read-out: WB TNF/IL8 IC50
pIC50: −log10 of the molar value.
Rule: pIC50 under 8 gives Condition not met, otherwise Condition met.

compound	category label
CCn1c(=O)c(-c2cc(C(=O)Nc3ccon3)ccc2C)nc2cnn(-c3c(F)cccc3F)c21 [Example 13]	Condition met
Cc1ccc(C(N)=O)cc1-c1nc2cnn(-c3c(F)cccc3F)c2n(C)c1=O [Example 4]	Condition not met
Cc1c(F)cc(C(=O)Nc2ccon2)cc1-c1nc2cnn(-c3c(F)cccc3F)c2n(C)c1=O [Example 6]	Condition met
CCn1c(=O)c(-c2cc(C(N)=O)cc(F)c2C)nc2cnn(-c3c(F)cccc3F)c21 [Example 12]	Condition not met
Cc1c(F)cc(C(=O)NC2CC2)cc1-c1nc2cnn(-c3ccc(F)cc3F)c2n(C)c1=O [Example 7]	Condition not met
CCn1c(=O)c(-c2cc(C(=O)NC3CC3)cc(F)c2C)nc2cnn(-c3c(F)cccc3F)c21 [Example 11]	Condition met
Cc1ccc(C(=O)Nc2ccon2)cc1-c1nc2cnn(-c3c(F)cccc3F)c2n(C)c1=O [Example 10]	Condition met
CCn1c(=O)c(-c2cc(C(=O)NC3CC3)ccc2C)nc2cnn(-c3c(F)cccc3F)c21 [Example 5]	Condition met

====

A collection of compounds and their measured pIC50
Biological target: human p38α (Homo sapiens)
Test: Purified and activated recombinant human p38α HTRF kinase assay
Settings: 1 nM p38α, 50 μM ATP, 100 nM GST-ATF2-Avitag, 1 hour at RT; read-out: p38a IC50
pIC50: −log10 of the molar value.

compound	pIC50
CCn1c(=O)c(-c2cc(C(=O)Nc3ccon3)ccc2C)nc2cnn(-c3c(F)cccc3F)c21 [Example 13]	9.15
Cc1c(F)cc(C(=O)Nc2ccon2)cc1-c1nc2cnn(-c3ccc(F)cc3F)c2n(C)c1=O [Example 8]	8.34
CCn1c(=O)c(-c2cc(C(=O)Nc3ccon3)cc(F)c2C)nc2cnn(-c3ccc(F)cc3F)c21 [Example 2]	8.60
Cc1ccc(C(=O)NC2CC2)cc1-c1nc2cnn(-c3c(F)cccc3F)c2n(C)c1=O [Example 3]	8.48
Cc1c(F)cc(C(=O)NC2CC2)cc1-c1nc2cnn(-c3c(F)cccc3F)c2n(C)c1=O [Example 1]	8.74
CCn1c(=O)c(-c2cc(C(=O)NC3CC3)cc(F)c2C)nc2cnn(-c3ccc(F)cc3F)c21 [Example 9]	8.30
CCn1c(=O)c(-c2cc(C(=O)NC3CC3)ccc2C)nc2cnn(-c3c(F)cccc3F)c21 [Example 5]	8.85
Cc1c(F)cc(C(=O)NC2CC2)cc1-c1nc2cnn(-c3ccc(F)cc3F)c2n(C)c1=O [Example 7]	7.47
